System: Plasmodium falciparum
Test: GSK_TCMDC: Inhibition of Plasmodium falciparum Dd2 in whole red blood cells, using parasite LDH activity as an index of growth. Test compounds present at 2uM
Assay type: functional
Hi! Could you tag entries with Inhibition below 60% as Condition met, and those at or above as Condition not met? Much appreciated.

{"columns": ["compound", "labelClass"],
 "data": [
  ["O=C(Nc1ccc(-c2ccccc2)cc1)Nc1cccc(Cn2nc(Cl)c(N3CCNCC3)cc2=O)c1.O=C(O)C(F)(F)F", "Condition not met"],
  ["CN(C)C1CCN(Cc2ccc(N3CCN(Cc4cccc5[nH]ccc45)CC3)nc2)CC1", "Condition met"],
  ["CCOCCCNc1nc2cc(OC)c(OC)cc2c2nc(-c3ccccc3)nn12", "Condition not met"],
  ["CC(C)CCN1CCCN(Cc2ccc(C(=O)Nc3ccc(C(C)(C)C)cc3)cc2)CC1.O=C(O)C(F)(F)F", "Condition met"],
  ["CC(Cc1ccc(C(=O)Nc2ccc(CC(C)NCCc3cccc(Cl)c3)cc2)cc1)NCCc1ccc(C(F)(F)F)cc1 (stereo not drawn)", "Condition not met"],
  ["O=[N+]([O-])c1ccc(Nc2nc(N/N=C/c3cccc(O)c3)nc(N3CCCC3)n2)cc1", "Condition met"],
  ["O=C(N[C@@H](CC1CCCCC1)C(=O)NCCc1ccc(Cl)c(Cl)c1)c1ccc(O)c(-c2ccc(Cl)c(Cl)c2)c1", "Condition not met"],
  ["N#CC(CC(=O)c1ccc(Cl)cc1)c1cccc(F)c1 (stereo not drawn)", "Condition met"],
  ["COc1cccc(-c2cc(C(=O)NC3CCC(N4CCC(c5ccccc5C)CC4)CC3)[nH]n2)c1 (stereo not drawn)", "Condition met"],
  ["COc1ccc2nccc(N3CCN(CCNCc4ccc5c(n4)NC(=O)CS5)CC3)c2c1.Cl", "Condition met"],
  ["O=S1(=O)NC2(CCN(CCc3ccc(Cl)cc3)CC2)Nc2cc(F)cc(F)c21", "Condition met"],
  ["CCC(=O)N1CCc2cc(Br)cc(S(=O)(=O)N3CC(C)CC(C)C3)c21 (stereo not drawn)", "Condition not met"],
  ["CCOc1cc2ncnc(Nc3ccc(OCc4ccccc4F)c(Cl)c3)c2cc1OCC.Cl", "Condition not met"],
  ["N#Cc1ccc(-c2cnc3ccc(NCCc4cccnc4)nn23)cc1", "Condition not met"],
  ["CC(C)c1ccc(CN2CCCCC(NC(=O)c3cc(-c4ccccc4Cl)cs3)C2)cc1.O=C(O)C(F)(F)F (stereo not drawn)", "Condition not met"],
  ["Cc1cccc(CNc2ncc(C)c(NCCC(=O)Nc3ccccc3)n2)c1.O=C(O)C(F)(F)F", "Condition met"],
  ["O=C(Nc1cccc(-c2ccc(-c3nc4cc(F)ccc4[nH]3)cc2)c1)Nc1ccc(F)c(F)c1F", "Condition not met"],
  ["Cl.c1ccc(CN2CCN(CCCCNc3c4ccccc4nc4ccccc34)CC2)cc1", "Condition not met"],
  ["Cl.Oc1ccc2[nH]c(-c3cccs3)nc2c1CN1CCC(O)(c2ccccc2)CC1", "Condition not met"],
  ["Cl.NCCCCc1c(-c2ccc(Cl)c(Cl)c2)[nH]c2ccc(Cl)cc12", "Condition met"],
  ["CN(CCc1ccccc1)c1ncc(-c2cccc(CNCCC3CCCN3C)c2)cn1 (stereo not drawn)", "Condition not met"],
  ["COc1ccc(NC(=O)[C@H](Cc2ccccc2)Nc2cc(C)nc(NCCc3cccnc3)n2)cc1.O=C(O)C(F)(F)F", "Condition met"],
  ["O=C(NCc1cccc(F)c1)Nc1ccc(-c2ccc(-c3nc4cc(C(F)(F)F)ccc4[nH]3)cc2)cc1", "Condition met"],
  ["COc1ccccc1C(=O)C1CCCN(C(=O)c2ccccc2C(F)(F)F)C1 (stereo not drawn)", "Condition not met"],
  ["Nc1ccc(-c2nc3cc(Oc4ccc5[nH]c(-c6ccc(N)cc6)nc5c4)ccc3[nH]2)cc1", "Condition not met"],
  ["Nc1ncc(-c2ccc(F)c(Cl)c2)c(N)n1", "Condition met"],
  ["CCCCOc1ccc(N2C(N)=NC(N)=NC2(C)C)cc1.Cl", "Condition met"],
  ["O=C(Cc1ccccc1)NC(CCN1CCC(O)(c2cccc(C(F)(F)F)c2)CC1)c1ccc(Cl)c(Cl)c1 (stereo not drawn)", "Condition met"],
  ["CC(C)n1cc2c(ccc3nc(N)nc(N)c32)n1", "Condition met"],
  ["CCc1cn(CCOC)c2ccc(C(=O)N[C@@H](Cc3ccccc3)[C@H](O)CNC(C)(C)CCCC(C)C)cc12.O=CO", "Condition not met"],
  ["CCC(Cc1cnc2nc(N)nc(N)c2n1)c1ccc(C(=O)N[C@@H](CCC(=O)O)C(=O)O)cc1 (stereo partly drawn) [EDATREXATE]", "Condition not met"],
  ["Cl.Nc1nc(N)c2c(ccc3nn(Cc4ccccc4)cc32)n1", "Condition not met"],
  ["CC1CN(c2cc(=O)n(Cc3cccc(NC(=O)Nc4ccc(-c5ccccc5)cc4)c3)cn2)CC(C)N1.O=C(O)C(F)(F)F (stereo not drawn)", "Condition not met"],
  ["O=C(Cn1c(=O)cnc2ccccc21)Nc1cccc(C(=O)Nc2cccc(C(F)(F)F)c2)c1", "Condition not met"],
  ["COc1ccccc1-c1ccc(C(=O)NCC2CCCN(Cc3cccc(C(F)(F)F)c3)C2)s1.O=C(O)C(F)(F)F (stereo not drawn)", "Condition met"],
  ["COc1ccc(Cn2c(Nc3cccc(C(F)(F)F)c3)nc3cc(C(=O)NCCCN(C)C)ccc32)cc1Cl", "Condition met"]
]}
